For each of the molecules below, state its half-life.
test: Hepatocyte stability assay (mouse); type: in vitro ADME; conditions: mouse hepatocytes; read-out: Hepatocyte stability (mouse) T1/2
Give just the numeric value; h need not be written.

Just so you know, measured half-life for C/C1=C\CC[C@@]2(C)O[C@@H]2[C@H]2OC(=O)[C@@H](CN3CCC(c4cc(O)nc(C)n4)CC3)[C@@H]2CC1 [C00008] came out at 1.07

Just so you know, measured half-life for C/C1=C\CC[C@@]2(C)O[C@@H]2[C@H]2OC(=O)[C@@H](CN[C@@H](Cc3ccccc3)C(=O)O)[C@@H]2CC1 [C00010] came out at 1.47

Just so you know, measured half-life for C/C1=C\CC[C@@]2(C)O[C@@H]2[C@H]2OC(=O)[C@@H](CN3CCCC3)[C@@H]2CC1 [C00005] came out at 1.08

The values you see were collected from paper PMC7478165.
